Test system: Escherichia coli
Measurement Notes: Antibacterial activity against Escherichia coli 1005 after 24 hrs
Assay type: functional
Run Parameters: Escherichia coli, 1005, 24 h
Readout Name: MIC95 (µM)

INSERT INTO assay_data (substance, unit_info, observed_measurement) VALUES
  ('H-RWWRRWRRWWR-NH2', 'µM', 8),
  ('H-RIIRRIRRIIR-NH2', 'µM', 8),
  ('H-RLRLLLRLR-NH2', 'µM', 4),
  ('H-LLRRLRRLL-NH2', 'µM', 16),
  ('H-WWRRWRRWW-NH2', 'µM', 4),
  ('H-RRIRIIIRIRR-NH2', 'µM', 4),
  ('H-RRLRLLLRLRR-NH2', 'µM', 4);
